This collection of values is drawn from patent US20240254114A1.

# target-desc: human DGAT2 (Homo sapiens (Human), UniProt Q96PD7)
# Sequence (Q96PD7 whole entry): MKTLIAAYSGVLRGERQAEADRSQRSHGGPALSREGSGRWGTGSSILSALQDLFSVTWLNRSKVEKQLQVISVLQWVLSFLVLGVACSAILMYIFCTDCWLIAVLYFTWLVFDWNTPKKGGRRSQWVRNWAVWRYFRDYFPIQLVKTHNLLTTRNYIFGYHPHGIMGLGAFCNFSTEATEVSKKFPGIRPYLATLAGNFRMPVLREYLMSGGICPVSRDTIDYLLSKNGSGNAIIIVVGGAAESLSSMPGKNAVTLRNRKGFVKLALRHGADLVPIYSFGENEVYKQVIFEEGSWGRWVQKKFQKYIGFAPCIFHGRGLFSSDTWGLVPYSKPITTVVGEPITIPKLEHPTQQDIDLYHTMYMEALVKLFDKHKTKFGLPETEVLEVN
# method: DGAT2 Enzymatic Activity Assay
# protocol-conditions: read-out: Human DGAT2 IC50; hDGAT2 membrane prep from Sf-9 cells; 13C18-triolein product by LC/MS/MS
value-kind: pIC50
Reminder that pIC50 means the negative base-10 logarithm of the concentration expressed in mol/L.

>  <chem-smiles>
CO[C@]1(C(F)(F)F)C[C@H](NC(=O)c2nc3ccc(Oc4ncc(Cl)cc4OCC(F)(F)F)cc3o2)C1

>  <val>
6.05

$$$$
>  <chem-smiles>
CC1(NC(=O)c2nc3ccc(Oc4ncc(Cl)cc4OCC(F)(F)F)cc3o2)CCS(=O)(=O)CC1

>  <val>
7.20

$$$$
>  <chem-smiles>
CC1(NC(=O)c2nc3ccc(Oc4ncc(Cl)cc4OCC(F)F)nc3n2CC2(F)COC2)CCS(=O)(=O)CC1

>  <val>
6.74

$$$$
>  <chem-smiles>
CC1(NC(=O)c2nc3nc(Oc4ncc(Cl)cc4OCC(F)F)ccc3n2CC2(F)COC2)CCS(=O)(=O)CC1

>  <val>
7.29

$$$$
>  <chem-smiles>
CO[C@]1(C(F)(F)F)C[C@@H](NC(=O)c2nc3ccc(Oc4ncc(Cl)cc4OCC(F)(F)F)cc3o2)C1

>  <val>
5.85

$$$$

# evaluate next
// lookup pIC50 for Cc1c(Oc2ncc(F)cc2OCC(F)(F)F)ncc2nc(C(=O)NC3(C)CCS(=O)(=O)CC3)n(C)c12 7.24

* * *

# target-desc: human DGAT2 (Homo sapiens (Human), UniProt Q96PD7)
# method: DGAT2 Enzymatic Activity Assay
# protocol-conditions: read-out: Human DGAT2 IC50; hDGAT2 membrane prep from Sf-9 cells; 13C18-triolein product by LC/MS/MS
Readings of pIC50 for the listed molecules
Reminder that pIC50 means the negative base-10 logarithm of the concentration expressed in mol/L.

Below: 3 molecules and their reported pIC50.
>  <molecule>
Cc1cc2nc(C(=O)NC3(C)CCS(=O)(=O)CC3)n(C)c2nc1Oc1ncc(F)cc1OCC(F)F [Example 48]

>  <target-desc>
human DGAT2 (Homo sapiens (Human), UniProt Q96PD7)

>  <pIC50>
8.20

$$$$
>  <molecule>
Cc1c(Oc2ncc(F)cc2OCC(F)(F)F)cnc2nc(C(=O)NC3(C)CCS(=O)(=O)CC3)n(C)c12 [Example 85]

>  <target-desc>
human DGAT2 (Homo sapiens (Human), UniProt Q96PD7)

>  <pIC50>
6.76

$$$$
>  <molecule>
O=C(N[C@H]1CCOC1)c1nc2ccc(Oc3ncccc3OCC(F)(F)F)cc2s1 [Example 93]

>  <target-desc>
human DGAT2 (Homo sapiens (Human), UniProt Q96PD7)

>  <pIC50>
6.33

$$$$

// lookup pIC50 for Cn1c(C(=O)NC2(C)CCS(=O)(=O)CC2)nc2ncc(Oc3ncc(F)cc3OCC(F)(F)F)cc21 [Example 83] 7.92

* * *

Readings of IC50 for the listed molecules
# target-desc: human DGAT2 (Homo sapiens (Human), UniProt Q96PD7)
# method: DGAT2 Enzymatic Activity Assay
# protocol-conditions: read-out: Human DGAT2 IC50; hDGAT2 membrane prep from Sf-9 cells; 13C18-triolein product by LC/MS/MS
Output spec: scalar in nM, unitless text.

Below: 4 molecules and their reported IC50.
>  <molecule>
Cn1c(C(=O)NC2(C)CCS(=O)(=O)CC2)nc2ccc(Oc3nccnc3OCC(F)F)nc21 [Example 38]

>  <IC50 / nM>
20

$$$$
>  <molecule>
CC1(NC(=O)c2nc3ccc(Oc4ncccc4OCC(F)(F)F)cc3s2)CS(=O)(=O)C1 [Example 92]

>  <IC50 / nM>
12

$$$$
>  <molecule>
Cn1c(C(=O)NC2(C)CCS(=O)(=O)CC2)nc2cnc(Oc3ncc(F)cc3OCC(F)(F)F)nc21 [Example 89]

>  <IC50 / nM>
25

$$$$
>  <molecule>
Cn1c(C(=O)NC2(C)CCS(=O)(=O)CC2)nc2cnc(Oc3ncc(Cl)cc3OCC(C)(F)F)cc21 [Example 67]

>  <IC50 / nM>
24

$$$$

// lookup IC50 for CC1(NC(=O)c2nc3ccc(Oc4ncc(Cl)cc4OCC(F)(F)F)cc3o2)CCC(F)(F)CC1 [Example 9] 29

// lookup IC50 for CCn1c(C(=O)NC2(C)CCS(=O)(=O)CC2)nc2ccc(Oc3ncc(Cl)cc3OCC(F)F)nc21 [Example 55] 8.9

// lookup IC50 for Cc1nc(Oc2ncc(Cl)cc2OCC(F)F)cc2c1nc(C(=O)NC1(C)CCS(=O)(=O)CC1)n2C [Example 74] 14

* * *

# target-desc: human DGAT2 (Homo sapiens (Human), UniProt Q96PD7)
# method: DGAT2 Enzymatic Activity Assay
# protocol-conditions: read-out: Human DGAT2 IC50; hDGAT2 membrane prep from Sf-9 cells; 13C18-triolein product by LC/MS/MS
value-kind: IC50 (nM)
Output spec: scalar in nM, unitless text.

>  <compound>
Cn1c(C(=O)NC2(C)CCS(=O)(=O)CC2)nc2ccc(OCc3ncc(F)cc3OCC(F)(F)F)nc21 [Example 59]

>  <IC50 / nM>
2.8

$$$$
>  <compound>
CCC(COc1ccc2nc(C(=O)NC3(C)CCS(=O)(=O)CC3)n(C)c2n1)OCC(C)(F)F (stereo not shown) [Example 61]

>  <IC50 / nM>
44

$$$$
>  <compound>
CC1(NC(=O)c2nc3ccc(Oc4ncc(Cl)cc4OCC(F)F)nc3s2)CS(=O)(=O)C1 [Example 95]

>  <IC50 / nM>
10

$$$$

# evaluate next
// lookup IC50 for CC1(NC(=O)c2nc3ccc(Oc4ncccc4OCC(F)(F)F)cc3o2)CCS(=O)(=O)CC1 [Example 2] 47

* * *

Readings of log10 IC50 for the listed compounds
# target-desc: human DGAT2 (Homo sapiens (Human), UniProt Q96PD7)
# method: DGAT2 Enzymatic Activity Assay
# protocol-conditions: Human DGAT2 IC50, hDGAT2 membrane prep from Sf-9 cells; 13C18-triolein product by LC/MS/MS
Please note: log10 values; quantity IC50; unit nM.

Below: 3 compounds and their reported log10 IC50.
>  <compound>
Cn1c(C(=O)NC2(C)CCS(=O)(=O)CC2)nc2cnc(OCc3ncc(Cl)cc3OCC(F)F)cc21

>  <log10 IC50>
1.48

$$$$
>  <compound>
CC1(NC(=O)c2nc3ccc(Oc4ncccc4OCC(F)(F)F)cc3s2)CCS(=O)(=O)CC1

>  <log10 IC50>
0.11

$$$$
>  <compound>
Cn1c(C(=O)NC2(C)CCS(=O)(=O)CC2)nc2c(F)c(Oc3ncc(Cl)cc3OCC(F)(F)F)ccc21

>  <log10 IC50>
2.78

$$$$

// lookup log10 IC50 for Cn1c(C(=O)NC2(C)CCS(=O)(=O)CC2)nc2cc(Oc3ncccc3OCC(F)(F)F)ccc21 2.84

// lookup log10 IC50 for Cn1c(C(=O)NC2(C)CCS(=O)(=O)CC2)cc2ccc(Oc3ncc(Cl)cc3OCC(F)F)nc21 0.04

// lookup log10 IC50 for O=C(N[C@H]1CCCC(F)(F)[C@@H]1O)c1nc2ccc(Oc3ncc(Cl)cc3OCC(F)(F)F)cc2o1 2.76

// lookup log10 IC50 for Cn1c(C(=O)NC2(C)CCS(=O)(=O)CC2)nc2ccc(Oc3ncc(F)cc3OCC(F)F)nc21 0.15

// lookup log10 IC50 for Cn1c(C(=O)NC2(C)CCS(=O)(=O)CC2)nc2ccc(OCC(CC(F)(F)F)OC(F)F)nc21 (single isomer, unassigned) [Example 62b] 2.21

* * *

# target-desc: human DGAT2 (Homo sapiens (Human))
# method: DGAT2 Enzymatic Activity Assay
# protocol-conditions: read-out: Human DGAT2 IC50; hDGAT2 membrane prep from Sf-9 cells; 13C18-triolein product by LC/MS/MS
Readings of IC50 for the listed molecules
Output spec: scalar in nM, unitless text.

>  <chem-smiles>
Cc1cnc(Oc2cc3c(cn2)nc(C(=O)NC2(C)CCS(=O)(=O)CC2)n3C)c(OCC(F)F)c1

>  <IC50, nM>
9.1

$$$$

// lookup IC50 for O=C(N[C@H]1CCCC(F)(F)[C@@H]1O)c1nc2ccc(Oc3ncc(Cl)cc3OCC(F)F)nc2s1 3.3

// lookup IC50 for Cn1c(C(=O)NC2(C)CCS(=O)(=O)CC2)nc2cnc(Oc3ncc(F)cc3OCC(F)F)cc21 6.9

* * *

Readings of log10 IC50 for the listed molecules
# target-desc: human DGAT2 (Homo sapiens (Human))
# method: DGAT2 Enzymatic Activity Assay
# protocol-conditions: read-out: Human DGAT2 IC50; hDGAT2 membrane prep from Sf-9 cells; 13C18-triolein product by LC/MS/MS
Please note: log10 values; quantity IC50; unit µM.

>  <molecule>
CC1(NC(=O)c2nc3nc(Oc4ncc(Cl)cc4OCC(F)F)ccc3n2CC(F)F)CCS(=O)(=O)CC1 [Example 53]

>  <log10 IC50>
-0.87

$$$$

// lookup log10 IC50 for CC1(NC(=O)c2nc3ccc(Oc4ncc(Cl)cc4OCC(F)(F)F)cc3o2)CC(F)(F)C1 [Example 4] -0.63
